# Ki per entry for hPanK3 (Homo sapiens, UniProt Q9H999)
The answer is to be given in nM; state only the numeric part.

Sample answers from the record:
- Compound: "CCC(C)c1ccc(NC(=O)N2CCN(c3ccc(C#N)nn3)CC2)cc1 (stereo not shown) [Compound 66]"
  Ki, nM: 7.8
- Compound: "CC(C)c1ccc(CC(=O)N[C@@H]2CN(c3ccc(C#N)nn3)C[C@@H]2O)cc1 [Compound 92]"
  Ki, nM: 40.8
- Compound: "CC(C)c1ccc(CC(=O)N2CCN(c3ccc(Cl)nn3)[C@@H](C)C2)cn1 [Compound 133]"
  Ki, nM: 9.7

We next turn to a different compound, shown below.
Ask | Notebook: pull reported Ki for hPanK3 (Homo sapiens, UniProt Q9H999), entry CC(C)c1ccc(CC(=O)N[C@H]2CCN(c3ccc(C#N)nn3)C2)cn1 [Compound 106]
Reply | 5.9

###

# pKi per entry for hPanK3 (Homo sapiens, UniProt Q9H999)
Conceptually, pKi converts a concentration in mol/L into minus its log10.

Sample answers from the record:
- Structure Smiles: "CC(C)(C)c1ccc(C(F)(F)C(=O)N2CCN(c3ccc(C#N)nn3)CC2)cc1"
  Readout: "pKi"
  Experimental Result: 7.68
- Structure Smiles: "CC(C)c1ccc(OC(=O)N2CCN(c3ccc(C#N)nn3)[C@@H](C)C2)cc1"
  Readout: "pKi"
  Experimental Result: 8.12
- Structure Smiles: "C[C@@H]1CN(C(=O)Cc2ccc(C(C)(C)C)cc2)CCN1c1ccc(C#N)nn1"
  Readout: "pKi"
  Experimental Result: 8.77
- Structure Smiles: "CC(C)c1ccc(CC(=O)N2CCN(c3ccc(C#N)nn3)C[C@H]2C)cc1"
  Readout: "pKi"
  Experimental Result: 8.85
- Structure Smiles: "CSc1cccc(CC(=O)N2CCN(c3ccc(C#N)nn3)[C@H](C)C2)c1"
  Readout: "pKi"
  Experimental Result: 7.42

Ask | Please give the measured pKi for this molecule: CC(C)c1ccc(CC(=O)N2CCN(c3ccc(Cl)nn3)[C@H](C)C2)cn1
Reply | 7.97

Ask | Please give the measured pKi for this molecule: CC(C)c1ccc(CC(=O)N2CCN(c3ccc(C#N)nn3)[C@@H](C)C2)s1
Reply | 8.89

Ask | Please give the measured pKi for this molecule: CC(C)c1ccc(CC(=O)N2CCN(c3ccc(C#N)nn3)[C@H](C)C2)cn1
Reply | 8.05

###

- System Name: UniProt:Q9H999
Entries whose Ki is below 7 nM take Met; entries at or above 7 nM take Not met.

The examples below pair each entry with its known result.
- Molecule: "CC(C)c1ccc(CC(=O)N2CCN(c3ccc(C#N)nn3)CC2)nc1"
  Assigned Label: "Not met"
- Molecule: "CC(c1ccc(CC(=O)N2CCN(c3ccc(C#N)nn3)[C@@H](C)C2)cc1)C(F)(F)F (stereo partly drawn)"
  Assigned Label: "Met"
- Molecule: "CSc1ccc(CC(=O)N2CCN(c3ccc(C#N)nn3)[C@H](C)C2)cc1"
  Assigned Label: "Not met"
- Molecule: "CC(C)c1ccc(CC(=O)N[C@H]2CN(c3ccc(C#N)nn3)C[C@@H]2O)cc1F"
  Assigned Label: "Not met"

Could you now look at the following molecule, please?
Ask | Hello, I'm reviewing records and need to know if Ki of CC(C)c1ccc(CC(=O)N2CCN(c3ccc(C#N)nn3)[C@@H](C)C2)cc1 is below 7 nM. Could you check?
Reply | Met

###

# IC50 per entry for hPanK3 (Homo sapiens, UniProt Q9H999)

- Structure Smiles: "Cc1ccc(CNC(=O)N2CCN(c3ccc(C#N)cn3)CC2)cc1"
  IC50: "> 10 µM"
- Structure Smiles: "N#Cc1ccc(N2CCN(C(=O)NC3CCCCC3)CC2)nc1"
  IC50: "> 10 µM"
- Structure Smiles: "CCCCCCCCNC(=O)N1CCN(c2ccc(C#N)cn2)CC1"
  IC50: "> 10 µM"
- Structure Smiles: "CC(C)c1cc(NC(=O)N2CCN(c3ccc(C#N)cn3)CC2)on1"
  IC50: "> 10 µM"
- Structure Smiles: "CC(C)(C)NC(=O)N1CCN(c2ccc(C#N)cn2)CC1"
  IC50: "> 10 µM"
- Structure Smiles: "N#Cc1ccc(N2CCN(C(=O)NCc3ccco3)CC2)nc1"
  IC50: "> 10 µM"

Ask | Notebook: pull reported IC50 for hPanK3 (Homo sapiens, UniProt Q9H999), entry CC(C)NC(=O)N1CCN(c2ccc(C#N)cn2)CC1
Reply | > 10 µM
